meta.source: patent US20080057086A1

experiment: Clinical study of single oral doses of 5-azacytidine (oral formulation of Example 3): PK, bioavailability, safety; assay type: in vivo, human; conditions: human, plasma, po, 60 mg, Subject 101; 60 mg single oral dose (Example 3 tablets); 1.5 h; read-out: Plasma concentration
test_readout: concentration at 1.5 h
Be sure to follow the number with its unit.

Query: Input Nc1ncn([C@@H]2O[C@H](CO)[C@@H](O)[C@H]2O)c(=O)n1 , output reported concentration at 1.5 h.
Response: 4.56 ng/mL

* * *

Test: Clinical study of single oral doses of 5-azacytidine (oral formulation of Example 3): PK, bioavailability, safety
Assay type: in vivo, human
Conditions: human, plasma, po, 80 mg, Subject 202; 80 mg single oral dose (Example 3 tablets)
Procedure: The study was a multicenter, open-label, single treatment study. Patients were treated with escalating doses, in 20 mg increments, up to 200 mg. The study assessed the safety and tolerability of escalating doses, provided pilot information on the oral bioavailability of the study drug, and provided information on the single dose pharmacokinetics of the study drug after oral administration. Multicenter, open-label, single-treatment, escalating-dose PK study. […]
test_readout: half-life (min)
Note: unit min is implicit; provide only the numeric part.

Query: Input Nc1ncn([C@@H]2O[C@H](CO)[C@@H](O)[C@H]2O)c(=O)n1 [5-azacytidine] , output reported half-life.
Response: 22

* * *

test: Clinical study of single oral doses of 5-azacytidine (oral formulation of Example 3): PK, bioavailability, safety; format: in vivo, human; details: human, plasma, oral, 60 mg, Subject 101; 60 mg single oral dose; SC reference dose = 135 mg, AUC = 777 ng · h/mL; read-out: F, percent bioavailability compared with historical SC azacitidine data
test_readout: bioavailability
Be sure to follow the number with its unit.

Query: Input Nc1ncn([C@@H]2O[C@H](CO)[C@@H](O)[C@H]2O)c(=O)n1 [5-azacytidine] , output reported bioavailability.
Response: 6.7%

* * *

assay: Clinical study of single oral doses of 5-azacytidine (oral formulation of Example 3): PK, bioavailability, safety; type: in vivo, human; conditions: human, plasma, po, 80 mg, Mean (n = 3); 80 mg single oral dose (Example 3 tablets)
test_readout: half-life (min)
Note: unit min is implicit; provide only the numeric part.

Query: Input Nc1ncn([C@@H]2O[C@H](CO)[C@@H](O)[C@H]2O)c(=O)n1 , output reported half-life.
Response: 21.7

* * *

assay: Clinical study of single oral doses of 5-azacytidine (oral formulation of Example 3): PK, bioavailability, safety; assay type: in vivo, human; settings: human, plasma, oral, 80 mg, Subject 102; 80 mg single oral dose; SC reference dose = 135 mg, AUC = 777 ng · h/mL; read-out: F, percent bioavailability compared with historical SC azacitidine data
test_readout: bioavailability (%)
Note: unit % is implicit; provide only the numeric part.

Query: Input Nc1ncn([C@@H]2O[C@H](CO)[C@@H](O)[C@H]2O)c(=O)n1 , output reported bioavailability.
Response: 6.3

* * *

assay: Clinical study of single oral doses of 5-azacytidine (oral formulation of Example 3): PK, bioavailability, safety; format: in vivo, human; settings: human, plasma, po, 80 mg, individual subjects who received an 80 mg oral dose (three values), post-dose
test_readout: Tmax (h)
Note: unit h is implicit; provide only the numeric part.

Query: Input Nc1ncn([C@@H]2O[C@H](CO)[C@@H](O)[C@H]2O)c(=O)n1 , output reported Tmax.
Response: 1.5
